Cited source: the RNAGym collection of RNA variant scans (doi:10.1002/anie.201605470)

B1: Osa-1-4 twister ribozyme (parent)
chain: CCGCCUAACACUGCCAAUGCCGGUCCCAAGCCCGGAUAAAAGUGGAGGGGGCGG

# Variants of: B1
# experimentalProtocol: self-cleavage, relative activity (ratio to wild type); higher = more cleavage; co-transcriptional

{"mutationString": "G23C G54A", "self-cleavage": 0.06}
{"mutationString": "A28C A36C", "self-cleavage": 0.64}
{"mutationString": "A46G G34A", "self-cleavage": 0.06}
{"mutationString": "A39G G48A", "self-cleavage": 0.1}
{"mutationString": "C9G G45A", "self-cleavage": 0.11}
{"mutationString": "C21G G54U", "self-cleavage": 0.11}
{"mutationString": "G48A G53A", "self-cleavage": 0.11}
{"mutationString": "C31A G30U", "self-cleavage": 0.01}
{"mutationString": "A40U C15G", "self-cleavage": 0.11}
{"mutationString": "C31U G51U", "self-cleavage": 0.13}
{"mutationString": "C20U U24G", "self-cleavage": 0.08}
{"mutationString": "G13A U12A", "self-cleavage": 0.07}
{"mutationString": "A28C A46U", "self-cleavage": 0.07}
{"mutationString": "G48A G54A", "self-cleavage": 0.15}
{"mutationString": "C33G G13U", "self-cleavage": 0.01}
{"mutationString": "A40U C21A", "self-cleavage": 0.15}
{"mutationString": "A36G C31A", "self-cleavage": 0.04}
{"mutationString": "C11G U37C", "self-cleavage": 0.69}
{"mutationString": "A41U G13U", "self-cleavage": 0.03}
{"mutationString": "A46G G23C", "self-cleavage": 0.02}
{"mutationString": "A28G C32U", "self-cleavage": 0.05}
{"mutationString": "C20G G51C", "self-cleavage": 0.03}
{"mutationString": "C11A G44U", "self-cleavage": 0.08}
{"mutationString": "A38U C15U", "self-cleavage": 0.21}
{"mutationString": "A29C A40G", "self-cleavage": 0.02}
{"mutationString": "U24A U43A", "self-cleavage": 0.07}
{"mutationString": "G19C G50C", "self-cleavage": 0.06}
{"mutationString": "A40U A8C", "self-cleavage": 0.05}
{"mutationString": "G34C U37G", "self-cleavage": 0.66}
{"mutationString": "C15G G22U", "self-cleavage": 0.09}
{"mutationString": "C27G G53C", "self-cleavage": 0.02}
{"mutationString": "C25A U18G", "self-cleavage": 0.35}
{"mutationString": "A17G A29G", "self-cleavage": 0.35}
{"mutationString": "A39C C26G", "self-cleavage": 0.07}
{"mutationString": "A29U G50C", "self-cleavage": 0.04}
{"mutationString": "C21A C25A", "self-cleavage": 0.08}
{"mutationString": "C11G G35C", "self-cleavage": 0.05}
{"mutationString": "A10C U37A", "self-cleavage": 0.11}
{"mutationString": "A40C G45U", "self-cleavage": 0.03}
{"mutationString": "A36U A46C", "self-cleavage": 0.08}
{"mutationString": "C15U U24G", "self-cleavage": 0.03}
{"mutationString": "C26G G54C", "self-cleavage": 0.08}
{"mutationString": "A8C C15U", "self-cleavage": 0.04}
{"mutationString": "A36U G44C", "self-cleavage": 1.03}
{"mutationString": "G49A U43G", "self-cleavage": 0.08}
{"mutationString": "A8G C31G", "self-cleavage": 0.08}
{"mutationString": "G49U G51A", "self-cleavage": 0.32}
{"mutationString": "G22A G45C", "self-cleavage": 0.06}
{"mutationString": "A28U U37G", "self-cleavage": 0.97}
{"mutationString": "A39U", "self-cleavage": 1}
{"mutationString": "A10G C15A", "self-cleavage": 0.17}
{"mutationString": "G19A G42A", "self-cleavage": 0.1}
{"mutationString": "A10G G53A", "self-cleavage": 0.41}
{"mutationString": "C11G G51A", "self-cleavage": 0.07}
{"mutationString": "G13C G22U", "self-cleavage": 0.02}
{"mutationString": "A29U C20A", "self-cleavage": 0.12}
{"mutationString": "A36G G13A", "self-cleavage": 0.24}
{"mutationString": "C20U G48C", "self-cleavage": 0.1}
{"mutationString": "C31A G53A", "self-cleavage": 0.04}
{"mutationString": "C52U G30A", "self-cleavage": 0.04}
{"mutationString": "A39C G22A", "self-cleavage": 0.78}
{"mutationString": "G22C G30C", "self-cleavage": 0.02}
{"mutationString": "A8C G42A", "self-cleavage": 0.06}
{"mutationString": "A38U U12A", "self-cleavage": 0.86}
{"mutationString": "C32A G49A", "self-cleavage": 0.04}
{"mutationString": "A7C G45C", "self-cleavage": 0.01}
{"mutationString": "C21U G54A", "self-cleavage": 0.96}
{"mutationString": "C32U G54C", "self-cleavage": 0.09}
{"mutationString": "C31U G23A", "self-cleavage": 0.07}
{"mutationString": "A29G C14U", "self-cleavage": 0.06}
{"mutationString": "A17U", "self-cleavage": 1.03}
